// provenance: PubChem BioAssay (NCI)

System: CCRF-CEM leukemia
Assay: NCI-60 one-dose screen, 48 h (100 = growth as untreated, 0 = no growth, -100 = all killed)
Details: 10 µM unless noted
Protocol: Growth inhibition of the CCRF-CEM human tumor cell line is measured as a screen for anti-cancer activity. Cells are grown in 96 well plates and exposed to the test compound for 48 hours. Compounds are tested at a single concentration, which is 10^-5 M for most compounds. The reported endpoint is percent growth (GI% or GIPRCNT), where numbers from 0 - 100% represent growth inhibition, and numbers from -100% - 0 represent cell death. For example, a value of 40 represents 60% growth inhibition. […]
The panel holds about 83,000 compounds, 20% with a hit somewhere; the sample as a whole holds those more often.
What growth was measured for each of the following?
Answers are plain numbers, in %.

Below are 2 compounds. Give each one its growth.
1. CN1C(=O)C(O)(CC(=O)c2cc3ccccc3oc2=O)c2ccccc21 (centres undefined)
2. O=C(c1ccc(O)cc1)C1[C@H](c2ccc(Cl)cc2)[C@@H](c2ccccc2)NC12C(=O)Nc1ccc(Br)cc12 (some centres undefined)

92
-11.1

Below are 3 compounds. Give each one its growth.
1. COC(=O)c1cc(C(=O)C(C)(C)C)n2c3ccccc3c3ccccc3c12
2. O=C(Nc1ccc(S(=O)(=O)N2CCCCC2)cc1)C(Cl)Cl
3. Cc1nc2sccn2c1-c1nnc(SCc2ccccc2)o1

1: 75.8; 2: 127; 3: 91.3

Below are 6 compounds. Give each one its growth.
1. COc1ccccc1NC(=O)N/N=C/c1c[nH]c2ccccc12
2. O=c1c(-c2nc(-c3ccccc3)c(-c3ccccc3)[nH]2)coc2ccc(F)cc12
3. Fc1ccc(N2CC(Cn3c(C(F)(F)F)cc4c(Cl)ncnc43)C2)c(F)c1
4. COc1cc(C2CC(c3ccc(F)cc3)=Nc3c(N)nc(N)nc3N2)ccc1Oc1nc(Nc2ccc(F)cc2)nc(N(C)C)n1 (centres undefined)
5. O=C1/C(=C/c2cnc(-c3ccccc3)s2)SC(=S)N1Cc1ccc2c(c1)OCO2
6. COc1cc(CNC(=O)C[C@H](C)CCC=C(C)C)ccc1OCc1cn(-c2ccc(Cl)cc2Cl)nn1

1: 17.4; 2: 49; 3: -38.5; 4: 44.2; 5: 87.2; 6: 116

Below are 2 compounds. Give each one its growth.
1. Fc1ccc(Nc2nnc(-c3c[nH]c4ccccc34)o2)cc1
2. CN1C(=O)/C(=C/c2ccco2)S/C1=N/c1nccs1

16.3
96.8

Below are 3 compounds. Give each one its growth.
1. O=C(Nc1ccc(-c2ccc3c(c2)NC(=O)/C3=C\c2ccc[nH]2)cc1)Nc1cccc(Cl)c1
2. CS(=O)(=O)Nc1cncc(-c2ccc3ncnc(NCc4ccccc4)c3c2)c1
3. Cn1cc(-c2cc(N)n3nc(-c4c[nH]c5ccc(Cl)cc45)cc3n2)c2cc(Br)cnc21

1. 13.7
2. 17
3. -66.1

Below are 8 compounds. Give each one its growth.
1. N#CCc1nnc(NC(=O)c2ccc(-n3c(=O)[nH]c4ccccc4c3=O)cc2)s1
2. CS(=O)(=O)Nc1cc(-c2ccc3ncnc(Nc4ccc(OCc5cccnc5)c(Cl)c4)c3c2)cnc1Cl
3. COc1ccc(OC)c(Cn2cc(C#N)c(N)c2C(=O)c2ccc(Br)cc2)c1
4. Cc1cc(Cl)ccc1NC(=O)Nc1ccc(-c2ccc3c(c2)NC(=O)/C3=C\c2ccc[nH]2)cc1
5. CCCn1c(NC(=O)c2cccc(C(N)=O)c2)nc2cc(CN3CCCCC3)ccc21
6. Cc1cc(=O)oc2cc(OCC(O)CNN3C(=O)c4cccc5c(N6CCN(C)CC6)ccc(c45)C3=O)ccc12 (centres undefined)
7. O=C(N/N=C/c1ccoc1)c1[nH]c2ccc(Br)cc2c1-c1ccccc1
8. COc1ccccc1Nc1nnc(-c2c[nH]c3ccccc23)o1

1: 101; 2: 11; 3: 44.3; 4: 97.8; 5: 94.7; 6: 96.7; 7: -12.1; 8: 8.16

Below are 5 compounds. Give each one its growth.
1. CC1=C(C(=O)Nc2ccccc2)C(c2cccc3ccccc23)n2c(nc3ccccc32)N1 (centres undefined)
2. COc1ccc2[nH]cc(-c3cc4nc(-c5cn(C)c6ncccc56)cc(N)n4n3)c2c1
3. COc1ccc2[nH]c(=O)c(CSc3ccccc3Nc3nccc(-c4ccc5c(c4)OCO5)n3)cc2c1
4. COc1cc(CNC(=O)C[C@H](C)CCC=C(C)C)ccc1OCc1cn(-c2cccc(C(F)(F)F)c2)nn1
5. COc1ccc(N=Nc2c(N)nn3c(-c4cc5cc(Br)ccc5oc4=O)ccnc23)cc1

[65.4, -34.3, 69.8, 97.1, 96.2]

Below are 2 compounds. Give each one its growth.
1. CN1C(=O)C2(C(C#N)=C(c3ccc(Cl)cc3)Nc3c2c(-c2ccccc2)nn3-c2ccccc2)c2ccccc21 (centres undefined)
2. Cc1nc2sccn2c1-c1nnc(SCC(C)C)o1

[75.6, 51.6]
